- test-method-notes: Primary qHTS to identify inhibitors of SARS-CoV-2 cell entry (AID 1645846); note: nearly all actives have a fitted effect of over 45% in size
- condition-set: SARS-CoV-2 pseudovirus cell entry assay, luminescence; series mostly up to 57.1 µM
Records with an inconclusive call do not appear. Calls of active or inactive are those of the source. Calls come from the whole dose curve.
Answer with one of the outcomes true for active, false for inactive

>  <compound>
Cc1cn([C@H]2C[C@H](N=[N+]=[N-])[C@@H](CO)O2)c(=O)[nH]c1=O

>  <classification>
true

$$$$

Input line: Recorded test outcome, item O[C@@H]1CO[C@H]2[C@@H]1OC[C@@H]2O
Output line: false

Input line: Recorded test outcome, item COC(=O)C(c1ccccc1Cl)N1CCc2sccc2C1 (centres undefined)
Output line: false

Input line: Recorded test outcome, item CN(C)CCC=C1c2ccccc2CCc2ccccc21
Output line: true

====

- test-method-notes: qHTS of pediatric cancer cell lines to identify multiple opportunities for drug repurposing: Primary screen for control Hh wild type fibroblast cells (AID 1347106);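 note: a drop in luminescence marks cytotoxicity and a rise apparent proliferation; nearly all actives have a fitted effect of over 55% in size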
- condition-set: Hh wild-type fibroblast viability, CellTiter-Glo luminescence, 48 h; series mostly up to 46 µM
Results filed as inconclusive are left out. Calls of active or inactive are those of the source. The call rests on the fitted dose curve; in most records, active means well fitted cell-killing curve with a large enough effect; inconclusive means small, poorly fitted or top-dose-only effect; inactive means flat fitted curve, though single readings scatter.
Answer with one of the outcomes active, inactive

Use these answered entries as a reference point.
>  <compound>
CC1=C2C[C@@H]3[C@@H](CC=C4C[C@@H](O)CC[C@@]43C)[C@@H]2CC[C@]12O[C@H]1C[C@H](C)CN[C@H]1[C@H]2C

>  <classification>
inactive

$$$$
>  <compound>
CC[C@@H](CO)NC(=O)[C@@H]1C=C2c3cccc4c3c(cn4C)C[C@H]2N(C)C1

>  <classification>
inactive

$$$$

Switching to the query record.
Input line: Recorded test outcome, item O=C(NC(O)C(Cl)(Cl)Cl)NC(O)C(Cl)(Cl)Cl (centres undefined)
Output line: inactive

====

- condition-set: Ebola virus entry assay, blue channel fluorescence
Active and inactive are the calls of the source. How the calls were made is not given here.
Answer with one of the outcomes active, inactive

Use these answered entries as a reference point.
>  <molecule>
CN(C)CCc1ccc(O)cc1

>  <classification>
inactive

$$$$
>  <molecule>
CCCCc1oc2ccccc2c1C(=O)c1cc(I)c(OCCN(CC)CC)c(I)c1

>  <classification>
active

$$$$
>  <molecule>
C[C@@H]1O[C@@H](O[C@H]2C[C@@H](O)[C@]3(CO)[C@H]4[C@H](O)C[C@]5(C)[C@@H](C6=CC(=O)OC6)CC[C@]5(O)[C@@H]4CC[C@]3(O)C2)[C@H](O)[C@H](O)[C@H]1O

>  <classification>
active

$$$$
>  <molecule>
CNCCCN1c2ccccc2CCc2ccccc21

>  <classification>
active

$$$$
>  <molecule>
C=C(C)[C@H]1Cc2c(ccc3c2O[C@@H]2COc4cc(OC)c(OC)cc4[C@@H]2C3=O)O1

>  <classification>
active

$$$$

Input line: Recorded test outcome, item Nc1nc2c(ncn2COC(CO)CO)c(=O)[nH]1
Output line: inactive

Input line: Recorded test outcome, item COC(=O)Nc1nc2ccc(C(=O)C3CC3)cc2[nH]1
Output line: active

Input line: Recorded test outcome, item CN/C(=C\[N+](=O)[O-])NCCSCc1ccc(CN(C)C)o1
Output line: inactive

Input line: Recorded test outcome, item O=C(O)c1ccc2[nH]cc(CCCCN3CC=C(c4ccccc4)CC3)c2c1
Output line: inactive

Input line: Recorded test outcome, item CCN(CC)CCNC(=O)c1c(C)[nH]c(/C=C2\C(=O)Nc3ccc(F)cc32)c1C
Output line: active

Input line: Recorded test outcome, item COCCCOc1cc(C[C@@H](C[C@H](N)[C@@H](O)C[C@H](C(=O)NCC(C)(C)C(N)=O)C(C)C)C(C)C)ccc1OC
Output line: inactive

Input line: Recorded test outcome, item Cc1nc(Nc2ncc(C(=O)Nc3c(C)cccc3Cl)s2)cc(N2CCN(CCO)CC2)n1
Output line: active

Input line: Recorded test outcome, item CC(C)NCC(O)c1ccccc1Cl (centres undefined)
Output line: inactive

Input line: Recorded test outcome, item CC(=O)Oc1cc2c(s1)CCN(C(C(=O)C1CC1)c1ccccc1F)C2 (centres undefined)
Output line: inactive

Input line: Recorded test outcome, item COc1c(C)c2c(c(O)c1C/C=C(\C)CCC(=O)OCCN1CCOCC1)C(=O)OC2
Output line: inactive

Input line: Recorded test outcome, item Cc1ccsc1C(=CCCN1CCC[C@@H](C(=O)O)C1)c1sccc1C
Output line: active

Input line: Recorded test outcome, item COc1cc(C(C)=O)ccc1OCCCN1CCC(c2noc3cc(F)ccc23)CC1
Output line: active

Input line: Recorded test outcome, item CCCN1CCC[C@@H]2Cc3[nH]ncc3C[C@H]21
Output line: inactive

Input line: Recorded test outcome, item Cc1ccc(NC(=O)c2ccc(CN3CCN(C)CC3)cc2)cc1Nc1nccc(-c2cccnc2)n1
Output line: active

Input line: Recorded test outcome, item Oc1cc(Cl)ccc1Oc1ccc(Cl)cc1Cl
Output line: active

Input line: Recorded test outcome, item CC[C@@H](CO)NC(=O)[C@@H]1C=C2c3cccc4[nH]cc(c34)C[C@H]2N(C)C1
Output line: active
